B1: EHEE_rd3_0053 (parent)
chain: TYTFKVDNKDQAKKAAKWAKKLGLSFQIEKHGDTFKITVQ

- Variants of: B1
- measurement_description: folding stability dG (cDNA display proteolysis); higher = more stable
- cond: PBS, room temperature
readout_name: folding stability dG (kcal/mol)

> print(dat)
                              sequence.input          readout.name  endpoint.result
 1  TYTFKVDNNDQAKKAAKWAKKLGLSFQIEKHGDTFKITVQ  folding stability dG              1.9
 2  TYTFKVDNKDQAKKSAKWAKKLGLSFQIEKHGDTFKITVQ  folding stability dG             1.26
 3  TYTFKVDNKQQAKKAAKWAKKLGLSFQIEKHGDTFKITVQ  folding stability dG             2.68
 4  IYTFKVDNKDQAKKAAKWAKKLGLSFQIEKHGDTFKITVQ  folding stability dG             2.51
 5  TYTFKVDNKDQAKKAAKWAKKLGLSFQIEKHGDTFKITVI  folding stability dG             2.49
 6  TYTFKVDNKDQAKKAAKWAKKLGWSFQIEKHGDTFKITVQ  folding stability dG             2.04
 7  TYTFKVDNKDQAKKAAKWAKKLGLDFQIEKHGDTFKITVQ  folding stability dG             2.18
 8  QYTFKVDNKDQAKKAAKWAKKLGLSFQIEKHGDTFKITVQ  folding stability dG             2.34
 9  TYTFKVDNKDQAKKAAKWAKKLGLSFQIKKHGDTFKITVQ  folding stability dG             2.07
10  TYTFKVDNKDQAKKAAKWKKKLGLSFQIEKHGDTFKITVQ  folding stability dG           -0.645
11  TYTFKVDNKDQAKKAAKWAKKLGLSFQIEKHGDTFAITVQ  folding stability dG             2.28
12  TYTFKVDNKDQAKKAAKWAKKLGLSFQIEKHGDTFLITVQ  folding stability dG             3.18
13  TYTFFVDNKDQAKKAAKWAKKLGLSFQIEKHGDTFKITVQ  folding stability dG             3.77
14  TYTFKVDNKDNAKKAAKWAKKLGLSFQIEKHGDTFKITVQ  folding stability dG             1.72
15  TYTFKVDNKDQAKKAAKWAKKLYLSFQIEKHGDTFKITVQ  folding stability dG              1.1
16  TYTFKVDNKDQAKKAAKWAKKLGLLFQIEKHGDTFKITVQ  folding stability dG             2.39
17  TYTFKVDNKDQAKKAAKWAKKLGLSFQIEKHGDIFKITVQ  folding stability dG             2.68
18  TYTFKVDNKDQAKKAAKWAKKLGLSVQIEKHGDTFKITVQ  folding stability dG             2.54
19  TYTFKVDNKDQAKEAAKWAKKLGLSFQIEKHGDTFKITVQ  folding stability dG             1.95
20  TYTFKVDNKDQAKKAAKWAKKLGLSFQIEKHGHTFKITVQ  folding stability dG              2.1
21  TYTFKVDNKDQAKKAAKWAKKLGLSFQIEKHGDTTKITVQ  folding stability dG            0.632
22  TYTFKVDNKDQAKKAAKWAKKLGLSFQIESHGDTFKITVQ  folding stability dG             2.03
23  TYTFKVDNKDQAKKAAKWAKKLGLWFQIEKHGDTFKITVQ  folding stability dG             2.38
24  TYTFKVDNKDQAKKAAYWAKKLGLSFQIEKHGDTFKITVQ  folding stability dG             2.34
25  TYTFKVDNKDQAKKAAAWAKKLGLSFQIEKHGDTFKITVQ  folding stability dG             2.61
26  TYTFKVDNKDQAKKAAKWAKKLGLSQQIEKHGDTFKITVQ  folding stability dG           -0.496
27  TYTFKVDNKDQAKKWAKWAKKLGLSFQIEKHGDTFKITVQ  folding stability dG             3.48
28  TYTFKVDNKDQAKKAAKWAKKLGHSFQIEKHGDTFKITVQ  folding stability dG             1.31
29  TYTFKVDNADQAKKAAKWAKKLGLSFQIEKHGDTFKITVQ  folding stability dG             2.62
30  TYTFKVDNKDQAKKAAKWANKLGLSFQIEKHGDTFKITVQ  folding stability dG             1.83
31  TYTFKVDNKDQAKKAAKWAKKLGLSFLIEKHGDTFKITVQ  folding stability dG             2.42
32  TYIFKVDNKDQAKKAAKWAKKLGLSFQIEKHGDTFKITVQ  folding stability dG             2.43
33  TYTFKVDNKDQAKKAAKWAKKLGLSFQIEKHGDFFKITVQ  folding stability dG             2.79
34  TYTFKVDNLDQAKKAAKWAKKLGLSFQIEKHGDTFKITVQ  folding stability dG              2.9
35  TYFFKVDNKDQAKKAAKWAKKLGLSFQIEKHGDTFKITVQ  folding stability dG              2.2
36  TYTFKVDNKDQAKKAAKWAWKLGLSFQIEKHGDTFKITVQ  folding stability dG             2.14
37  TYTFKLDNKDQAKKAAKWAKKLGLSFQIEKHGDTFKITVQ  folding stability dG             2.32
38  TYTFKVDNKDQAKKAAKWAKKLGLSFQIELHGDTFKITVQ  folding stability dG             1.98
39  TYTFKVDFKDQAKKAAKWAKKLGLSFQIEKHGDTFKITVQ  folding stability dG             1.46
40  TYTKKVDNKDQAKKAAKWAKKLGLSFQIEKHGDTFKITVQ  folding stability dG            0.404
41  TYTFKVDNKDQAKKAAKWAKKLGLKFQIEKHGDTFKITVQ  folding stability dG             2.46
42  TYTFKVDNKDQAKKAAKWAKKLGLSFQLEKHGDTFKITVQ  folding stability dG             1.84
43  TYTCKVDNKDQAKKAAKWAKKLGLSFQIEKHGDTFKITVQ  folding stability dG             3.42
44  TYTFKVDNKDQPKKAAKWAKKLGLSFQIEKHGDTFKITVQ  folding stability dG           -0.057
45  TYTFKVDNKDQAKKAAKWAKKLGLSFQIMKHGDTFKITVQ  folding stability dG             2.05
46  TYTFKVDNKDQAKKAAKWAKKLGLSFYIEKHGDTFKITVQ  folding stability dG             2.58
47  TYTFKVDNKDQAKKAAKWAKKLGLSFQIEKHGDTFKITVE  folding stability dG             2.19
48  TYTFKVDNKDQAKKAAKWAKKLGLSFQIEKHGDTFKIVVQ  folding stability dG             2.01
49  TYTFKVDNKDQALKAAKWAKKLGLSFQIEKHGDTFKITVQ  folding stability dG             2.46
50  TGTFKVDNKDQAKKAAKWAKKLGLSFQIEKHGDTFKITVQ  folding stability dG            0.704
51  TYTHKVDNKDQAKKAAKWAKKLGLSFQIEKHGDTFKITVQ  folding stability dG            0.581
52  TYTFKVDNKFQAKKAAKWAKKLGLSFQIEKHGDTFKITVQ  folding stability dG             2.75
53  TYTFKVDNKDQAKKAAKWAFKLGLSFQIEKHGDTFKITVQ  folding stability dG             2.07
54  TYTFKVDNKDQAKKAAKWAKKLGLSFQIEKHGDTFTITVQ  folding stability dG             2.88
55  THTFKVDNKDQAKKAAKWAKKLGLSFQIEKHGDTFKITVQ  folding stability dG             1.95
56  TYTFKVDNKDSAKKAAKWAKKLGLSFQIEKHGDTFKITVQ  folding stability dG             2.18
57  TYTFKVDNKDQAKKAAWWAKKLGLSFQIEKHGDTFKITVQ  folding stability dG             2.43
58  TYTFKVDNKDQAKKAGKWAKKLGLSFQIEKHGDTFKITVQ  folding stability dG             1.84
59  TYTFKVDNKDQAKKAAKWMKKLGLSFQIEKHGDTFKITVQ  folding stability dG             2.79
60  TYTFKVDNKDQAKKAAKWAKKRGLSFQIEKHGDTFKITVQ  folding stability dG             2.63
61  TYTFKVDNKDQAKKAAKWAKKLGLSFRIEKHGDTFKITVQ  folding stability dG             2.61
62  TYTFKVDNKDQAKKAAKWHKKLGLSFQIEKHGDTFKITVQ  folding stability dG            0.465
63  TYTFKVDNKDQAKKAAKWAKKLGLSFQIEKHGDAFKITVQ  folding stability dG             2.64
64  TYTFKVDNKDQAKKAAKWAKKLGLSFQIEKHGFTFKITVQ  folding stability dG                2
65  TYTFKVDNKDQAKKAAKWAKKLGLSFQIEKHGDTFKIFVQ  folding stability dG             1.71
66  TYTFKVDNKDQAKKAAKWAKKLGLSFQIEKHGDTFKITVR  folding stability dG             2.59
67  TYTFKVDNKDFAKKAAKWAKKLGLSFQIEKHGDTFKITVQ  folding stability dG             1.85
68  TYTFKVDNKSQAKKAAKWAKKLGLSFQIEKHGDTFKITVQ  folding stability dG             2.71
69  TYTFKVDNKDQAKKAARWAKKLGLSFQIEKHGDTFKITVQ  folding stability dG             2.63
70  LYTFKVDNKDQAKKAAKWAKKLGLSFQIEKHGDTFKITVQ  folding stability dG             2.21
71  TYTFKVDNKDQAKKAAKWAKKLGLSFQIEKHSDTFKITVQ  folding stability dG             1.31
72  TYTFKVDNKDQAKKAAKWAKKLGLSFQIGKHGDTFKITVQ  folding stability dG             1.19
73  TYTFKVDNKDQAKKAAKWAKKLGLGFQIEKHGDTFKITVQ  folding stability dG             1.89
74  TYTFKVDNKDQAKKAAKWAKKLGLSFQMEKHGDTFKITVQ  folding stability dG             2.15
75  TYTFKVDNKDQAKKAAKWAKKQGLSFQIEKHGDTFKITVQ  folding stability dG             2.14
76  TYTFKVDNKDQAKKAAKWAKKLGLSFQIEKHGDTFKITPQ  folding stability dG           -0.963
77  TYTFKVDNKDQAKKAAKWAKKLGLSFQIEKHGDTFQITVQ  folding stability dG             2.66
78  TYTFKVDNKDQEKKAAKWAKKLGLSFQIEKHGDTFKITVQ  folding stability dG            0.263
79  TYTFKVDNKDQAKKAAKWAKKLGLSFQIEKHNDTFKITVQ  folding stability dG             1.96
80  TYTFKVDNKDQAKKAAKWAKKLGLSFQNEKHGDTFKITVQ  folding stability dG           -0.243
81  TYTFKVDNKDQAKQAAKWAKKLGLSFQIEKHGDTFKITVQ  folding stability dG             2.24
82  TYEFKVDNKDQAKKAAKWAKKLGLSFQIEKHGDTFKITVQ  folding stability dG             2.15
83  TYTFKVDNKDQAKKAAKWAKKLGLSFQIEKHGDNFKITVQ  folding stability dG             2.28
